meta.source: patent US20220098304A1

- target_of_assay: T1, Human PD-1-His protein (Cat. #10377H08H, Sino Biological) (human, UniProt Q15116 25-167)
- T1 construct: Bought protein; also called hPD-1-His; hu PD-1-his; not shown: His tag of the bought protein
- assay_explanation: SPR (Biacore), antibody captured on Protein A chip, PD-1 in flow
quantity_measured: kon (M⁻¹ s⁻¹)
Respond numerically; units are M⁻¹ s⁻¹ and should not be typed.

Recorded kon, per entry:
1) Hu33-1.IgG4AA (antibody, V domains shown, Full-length IgG4-AA, kappa) VH: EVQLVESGGGLVQPGGSLRLSCAASGFTFSSYAMSWVRQAPGKGLEWVATISGGGVDTYYQDNVQGRFTISRDNAKNSLYLQMNSLRAEDTAVYYCARPYGHGYFDVWGQGTTVTVSS VL: DIQMTQSPSSLSASVGDRVTITCRASQDINNFLNWYQQKPGKAPKLLIYYTSSLHSGVPSRFSGSGSGTDFTLTISSLQPEDFATYYCQQGNTLPWTFGGGTKVEIKR : 66100
2) Hu32a-71.IgG4AA (antibody, V domains shown, Full-length IgG4-AA, kappa) VH: EVQLVQSGAEVKKPGSSVKVSCKASDFTFTDYEIHWVRQAPGQGLEWIGLFDPETGGIVYNQKFKGRATLTADKSTSTAYMEFSSLRSEDTAVYYCTREGYNRDWYFDVWGQGTTVTVSS VL: DIVMTQTPLSLPVTPGEPASISCRSSQSLVHSTGNTYLEWYLQKPGQSPQLLIYKVSNRFSGVPDRFSGSGSGTDFTLKISRVEAEDVGVYYCFQGSHVPYTFGGGTKVEIKR : 86000
3) Hu32a-85.IgG4AA (antibody, V domains shown, Full-length IgG4-AA, kappa) VH: EVQLVQSGAEVKKPGSSVKVSCKASDFTFTDYEIHWVKQAPGHGLEWIGLFDPETGGIVYNQKFKGKATLTADKSTSTAYMEFSSLRSEDTAVYYCTREGYNRDWYFDVWGQGTTVTVSS VL: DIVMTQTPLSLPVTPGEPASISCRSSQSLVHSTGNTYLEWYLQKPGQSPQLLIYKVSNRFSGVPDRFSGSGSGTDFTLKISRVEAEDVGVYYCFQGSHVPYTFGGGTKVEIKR : 99000
4) Hu33-4.IgG4AA (antibody, V domains shown, Full-length IgG4-AA, kappa) VH: EVQLVESGGGLVQPGGSLRLSCAASGFTFSSYAMSWVRQAPGKGLEWVATISGGGVDTYYQDNVQGRFTISRDNAKNSLYLQMNSLRAEDTAVYYCARPYGHGYFDVWGQGTTVTVSS VL: DIQMTQSPSSLSASVGDRVTITCRASQDINNFLNWYQQKPGKAPKLLIYYTSSLHSGVPSRFSGSGSGTDYTLTISSLQPEDFATYYCQQGNTLPWTFGGGTKVEIKR : 81100

The record that follows has no kon shown yet.
Would you kindly share the measured kon for Hu32a-43.IgG4AA (antibody, V domains shown, Full-length IgG4-AA, kappa) VH: EVQLVQSGAEVKKPGSSVKVSCKASDFTFSDYEIHWVRQAPGQGLEWMGLFDPETGGIVYNQKFKGRVTLTADKSTSTAYMELSSLRSEDTAVYYCTREGYNRDWYFDVWGQGTTVTVSS VL: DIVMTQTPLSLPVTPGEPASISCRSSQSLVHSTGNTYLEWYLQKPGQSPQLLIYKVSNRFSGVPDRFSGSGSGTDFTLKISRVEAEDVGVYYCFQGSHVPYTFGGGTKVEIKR ?
83900
